experimental_system: EphA2R (Homo sapiens, UniProt P29317)
Sequence (P29317 24-976): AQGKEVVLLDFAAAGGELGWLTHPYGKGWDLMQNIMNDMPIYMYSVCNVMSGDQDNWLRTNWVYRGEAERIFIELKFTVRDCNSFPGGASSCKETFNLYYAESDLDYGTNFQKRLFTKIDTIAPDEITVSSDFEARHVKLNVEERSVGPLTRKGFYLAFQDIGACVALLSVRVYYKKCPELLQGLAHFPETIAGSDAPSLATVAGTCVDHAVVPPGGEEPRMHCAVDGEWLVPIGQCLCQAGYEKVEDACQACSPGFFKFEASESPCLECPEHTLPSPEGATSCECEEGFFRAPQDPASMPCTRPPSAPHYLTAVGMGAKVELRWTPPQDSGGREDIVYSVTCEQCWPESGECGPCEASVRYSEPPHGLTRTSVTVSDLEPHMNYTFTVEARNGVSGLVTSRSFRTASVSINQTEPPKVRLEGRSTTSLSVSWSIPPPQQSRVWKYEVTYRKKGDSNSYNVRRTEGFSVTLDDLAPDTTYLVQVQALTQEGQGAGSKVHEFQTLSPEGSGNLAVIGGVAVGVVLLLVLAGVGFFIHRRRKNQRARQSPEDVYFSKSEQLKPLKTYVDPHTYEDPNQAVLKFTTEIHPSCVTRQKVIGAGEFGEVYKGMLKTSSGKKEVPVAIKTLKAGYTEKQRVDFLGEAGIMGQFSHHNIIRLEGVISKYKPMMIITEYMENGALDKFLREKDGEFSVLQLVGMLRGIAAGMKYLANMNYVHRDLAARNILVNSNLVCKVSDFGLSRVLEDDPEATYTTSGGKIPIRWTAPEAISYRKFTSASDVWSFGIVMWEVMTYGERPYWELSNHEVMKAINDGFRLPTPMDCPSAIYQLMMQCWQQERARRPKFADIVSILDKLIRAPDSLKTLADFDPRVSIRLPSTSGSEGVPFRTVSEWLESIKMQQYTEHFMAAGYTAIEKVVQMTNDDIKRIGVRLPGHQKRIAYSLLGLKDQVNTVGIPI
measurement_type: IC50

INPUT: Query the reported IC50 for EphA2R (Homo sapiens, UniProt P29317); item: NC(=O)c1nc(-c2cccc3ccccc23)cnc1N
OUTPUT: ≥ 10 µM

----------
experimental_system: Chk1 (Homo sapiens)
Construct: purchased Upstate Biotechnology
Sequence (O14757 whole entry): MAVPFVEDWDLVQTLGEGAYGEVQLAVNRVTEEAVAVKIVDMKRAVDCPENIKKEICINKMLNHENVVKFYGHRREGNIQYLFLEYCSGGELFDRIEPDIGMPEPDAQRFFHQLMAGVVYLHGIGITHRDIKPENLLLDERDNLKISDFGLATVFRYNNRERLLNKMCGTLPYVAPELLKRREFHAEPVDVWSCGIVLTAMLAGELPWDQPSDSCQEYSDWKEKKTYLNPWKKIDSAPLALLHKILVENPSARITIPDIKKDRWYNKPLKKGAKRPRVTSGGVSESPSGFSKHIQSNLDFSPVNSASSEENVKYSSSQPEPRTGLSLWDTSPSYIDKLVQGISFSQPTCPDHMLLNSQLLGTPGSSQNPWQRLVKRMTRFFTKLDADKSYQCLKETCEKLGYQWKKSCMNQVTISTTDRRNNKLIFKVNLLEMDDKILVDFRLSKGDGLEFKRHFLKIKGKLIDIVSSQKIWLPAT
assay_text: Chk1 kinase assay: incorporation of γ-33P ATP into immobilized myelin basic protein
Assay type: biochemical
condition_notes: Table 11; Chk1 only; read-out: Chk1 IC50
pIC50: −log10 of the molar value.
measurement_type: pIC50

compound	pIC50
CNC(=O)c1nc(-c2cccc(CNC(C)(C)c3ccccc3)c2)cnc1N	6.00 to 7.30

INPUT: So what does the record say about pIC50 for Nc1ncc(-c2cccc(C(=O)N[C@H]3CCc4ccccc43)c2)nc1-c1nc(C2CCCNC2)n(-c2ccccc2)n1 (stereo partly shown) ?
OUTPUT: 6.00 to 7.30

INPUT: For the compound CNC(=O)c1nc(-c2cc(C(=O)O)cc(C(=O)OC)c2)cnc1N , what pIC50 is on record?
OUTPUT: 5.00 to 6.00

INPUT: // returns reported pIC50 for input Nc1ncc(-c2cccc(CN[C@H]3CCc4ccccc43)c2)nc1C(=O)NCc1ccccc1
OUTPUT: 5.00 to 6.00

All figures here come from patent US7704995B2.
